tgt: MAGL (Homo sapiens)
Construct: PC3 human cell membrane proteomes; endogenous in cells; host or cells: PC3 human cells (membrane proteome)
Sequence (Q99685 whole entry): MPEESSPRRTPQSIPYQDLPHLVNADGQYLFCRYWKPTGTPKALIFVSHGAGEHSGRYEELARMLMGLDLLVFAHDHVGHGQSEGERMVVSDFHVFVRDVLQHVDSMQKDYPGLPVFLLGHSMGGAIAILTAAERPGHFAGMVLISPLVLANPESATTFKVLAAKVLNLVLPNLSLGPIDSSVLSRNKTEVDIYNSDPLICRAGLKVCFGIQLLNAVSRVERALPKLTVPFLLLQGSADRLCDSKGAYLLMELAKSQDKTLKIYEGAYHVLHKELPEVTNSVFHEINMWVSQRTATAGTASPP
assay-explanation: In vitro competitive activity-based protein profiling (PC3 human cell membrane proteomes)
Type: biochemical
Overview of recorded MAGL % inh. 1 µM (human PC3) for various compounds
The reply should contain only the number, in %.

O=C(Nc1cncnc1)C1CC12CCN(C(=O)OC(C(F)(F)F)C(F)(F)F)CC2 (single isomer, unassigned)    90
O=C(Nc1cccnc1C(F)(F)F)C1CC12CCN(C(=O)OC(C(F)(F)F)C(F)(F)F)CC2 (single isomer, unassigned)    100

Proceed to the following item.
Reported MAGL % inh. 1 µM (human PC3) ( Cc1ncccc1NC(=O)C1CC12CCN(C(=O)OC(C(F)(F)F)C(F)(F)F)CC2 (single isomer, unassigned) [Example 69] ) = 100

====

assay-explanation: Rat Kp, brain disposition after oral gavage
Format: in vivo
condition-set: male, Sprague-Dawley, po, total brain concentration:total plasma concentration ratio, 5 mg/kg p.o., 4 h
observed-property: Kp at 4 h
Answer using only a numeral; do not append any unit.

For O=C(Nc1cccnc1)[C@H]1CC12CCN(C(=O)OC(C(F)(F)F)C(F)(F)F)CC2 (single isomer, unassigned) the compound record lists Kp at 4 h as 3.01

Reported Kp at 4 h ( O=C(Nc1cccnn1)[C@H]1CC12CCN(C(=O)OC(C(F)(F)F)C(F)(F)F)CC2 ) = 3.09

Form field Kp at 4 h, entry O=C(NC1CCOCC1)[C@H]1CC12CCN(C(=O)OC(C(F)(F)F)C(F)(F)F)CC2 : 2.06

====

assay-explanation: Kinetic solubility in PBS
Format: physicochemical
condition-set: aqueous buffer, kinetic from dmso stock, PBS pH 2.0, RT, read-out: pH 2 Solubility (kinetic)
observed-property: log10 of solubility kinetic at 2 h (log10 of the value in µM)
Short version: log10 scale, solubility kinetic at 2 h, µM.

Worked cases, answers included:
O=C(Nc1cccnc1)[C@H]1CC12CCN(C(=O)OC(C(F)(F)F)C(F)(F)F)CC2 (single isomer, unassigned)    1.48
Cn1ccc(NC(=O)C2CC23CCN(C(=O)OC(C(F)(F)F)C(F)(F)F)CC3)n1 (single isomer, unassigned)    2.44
O=C(NC1CCOCC1)[C@H]1CC12CCN(C(=O)OC(C(F)(F)F)C(F)(F)F)CC2    2.49
O=C(Nc1cccnn1)[C@H]1CC12CCN(C(=O)OC(C(F)(F)F)C(F)(F)F)CC2    2.38
O=C(Nc1ccc(C(F)(F)F)nc1)C1CC12CCN(C(=O)OC(C(F)(F)F)C(F)(F)F)CC2 (single isomer, unassigned)    1.23

What the record says about Cc1cnc(NC(=O)C2CC23CCN(C(=O)OC(C(F)(F)F)C(F)(F)F)CC3)cn1 (single isomer, unassigned) : log10 of solubility kinetic at 2 h is 2.27

So for O=C(NC(=O)C1CC12CCN(C(=O)OC(C(F)(F)F)C(F)(F)F)CC2)C1CCCCC1 (single isomer, unassigned) , the logged log10 of solubility kinetic at 2 h turned out to be 1.52

Note to self: log10 of solubility kinetic at 2 h recorded for O=C(Nc1cncc(F)c1)C1CC12CCN(C(=O)OC(C(F)(F)F)C(F)(F)F)CC2 (single isomer, unassigned) was 2.21
